- System: Leishmania donovani
- procedure details: Leishmania intramacrophage assay
- Assay type: functional, organism-based
- Design: scale not given: in the data most compounds retested in dose-response had high values
- study conditions: 30.3 µM; […]
About 1,000 (1.4%) of roughly 69,000 compounds showed an effect of 50% or more. This is one part of a sample in which strong results are shown more often than they occur.
Overview of reported Percent Effect across a group of compounds:
property: Percent Effect (%)

[
  {
    "compound": "Cc1oncc1C(=O)N1CCC(O)(CN2CCOCC2)C(C)(C)C1 (configuration not stated)",
    "property": "Percent Effect",
    "measurement": 22.16
  },
  {
    "compound": "CC(C)(C)c1nc(CNc2ccccc2SCCC(N)=O)cs1",
    "property": "Percent Effect",
    "measurement": -34.53
  },
  {
    "compound": "CN(Cc1ccncn1)C(=O)C1(Oc2ccc(Cl)cc2)CCNCC1",
    "property": "Percent Effect",
    "measurement": 12.34
  },
  {
    "compound": "CCN1CCC2(CC1)OCCN2C(=O)c1cc(Cl)c(OC)c(Cl)c1.Cl",
    "property": "Percent Effect",
    "measurement": 18.32
  },
  {
    "compound": "COc1ccc(Br)cc1CCC(=O)N1CCCC(O)C1 (configuration not stated)",
    "property": "Percent Effect",
    "measurement": 6.225
  },
  {
    "compound": "O=C(c1cc[nH]n1)N1CCC(c2cc(Nc3ccccn3)n[nH]2)CC1",
    "property": "Percent Effect",
    "measurement": 6.823
  },
  {
    "compound": "CC(C)c1noc(OCc2cccc(C#N)c2)n1",
    "property": "Percent Effect",
    "measurement": 36.94
  },
  {
    "compound": "CCC(CC)C(=O)N1CCN(Cc2nc3ccccc3c(=O)[nH]2)CC1",
    "property": "Percent Effect",
    "measurement": 0.3817
  },
  {
    "compound": "CCc1nc2c(c(C)c(C)n2Cc2cccnc2)c(N)c1C",
    "property": "Percent Effect",
    "measurement": 13.69
  },
  {
    "compound": "CCc1noc(C2CCCCN2C(=O)c2ccccc2)n1 (configuration not stated)",
    "property": "Percent Effect",
    "measurement": -11.89
  },
  {
    "compound": "CN1CCCC1(CCCc1cccnc1)C(=O)NCc1nccn1C (configuration not stated)",
    "property": "Percent Effect",
    "measurement": 27.11
  },
  {
    "compound": "c1cc(C2CCN(c3ncnc4c3CCNCC4)CC2)ccn1",
    "property": "Percent Effect",
    "measurement": 3.191
  },
  {
    "compound": "CCn1nc(C)c(CN2CCCC(c3ccc(C(=O)O)cc3)C2)c1C (configuration not stated)",
    "property": "Percent Effect",
    "measurement": 17.25
  },
  {
    "compound": "CN1CCC(N(C)C[C@H]2CC[C@@H](Cc3ccc4c(cnn4C)c3)O2)CC1",
    "property": "Percent Effect",
    "measurement": 38.58
  },
  {
    "compound": "CC(=O)c1c(C)nn(CC(=O)N2CCCC2c2ccc(C(N)=O)s2)c1C (configuration not stated)",
    "property": "Percent Effect",
    "measurement": 42.8
  },
  {
    "compound": "COc1ccccc1C(=O)N1CCN(CCc2scnc2C)CC1",
    "property": "Percent Effect",
    "measurement": 5.837
  },
  {
    "compound": "CCn1c(CC2CCN(C(=O)C3CNCCO3)CC2)nn(C)c1=O (configuration not stated)",
    "property": "Percent Effect",
    "measurement": -9.405
  },
  {
    "compound": "NC(=O)C(NCc1ccc(Cl)s1)c1ccccc1 (configuration not stated)",
    "property": "Percent Effect",
    "measurement": 22.99
  },
  {
    "compound": "c1ccc(C2CCCN(c3ncnc4c3CCNC4)CC2)cc1 (configuration not stated)",
    "property": "Percent Effect",
    "measurement": 74.19
  },
  {
    "compound": "Clc1cccc(C2CCN(c3ncnc4c3CCNC4)C2)c1 (configuration not stated)",
    "property": "Percent Effect",
    "measurement": 76.01
  },
  {
    "compound": "CCc1noc(C2CCCCN2C(=O)c2cccnc2)n1 (configuration not stated)",
    "property": "Percent Effect",
    "measurement": -10.93
  },
  {
    "compound": "CN1CCC(N(C)C[C@H]2CC[C@@H](Cc3ccc4occc4c3)O2)CC1",
    "property": "Percent Effect",
    "measurement": 87.95
  },
  {
    "compound": "CC(=O)NC1CCN(C(=O)c2cnc(COc3ccccc3)nc2O)C1 (configuration not stated)",
    "property": "Percent Effect",
    "measurement": 6.861
  },
  {
    "compound": "CC(C#N)CNC(=O)Nc1ccc(Br)cc1 (configuration not stated)",
    "property": "Percent Effect",
    "measurement": 6.996
  },
  {
    "compound": "Cc1cccc(OCC2CCCN(C(=O)CN(C)C3CCNCC3)C2)c1 (configuration not stated)",
    "property": "Percent Effect",
    "measurement": 48.81
  },
  {
    "compound": "CCc1ccc(C2COCCN2C(=O)Nc2ccc(C(N)=O)c(Cl)c2)o1 (configuration not stated)",
    "property": "Percent Effect",
    "measurement": -7.006
  },
  {
    "compound": "Cc1nn(C)cc1CN1C[C@@H]2CC[C@H](C1)N(Cc1c(C)noc1C)C2=O",
    "property": "Percent Effect",
    "measurement": 16.01
  },
  {
    "compound": "Cc1ccc(OC2(C(=O)N(C)Cc3ccoc3)CCNCC2)cc1",
    "property": "Percent Effect",
    "measurement": 83.11
  },
  {
    "compound": "O=C(c1ccn(COc2ccc(F)cc2)n1)N1CCCC1",
    "property": "Percent Effect",
    "measurement": 0.02157
  },
  {
    "compound": "N#Cc1cccc(OCCN2CCCC(c3noc(C4CC4)n3)C2)c1 (configuration not stated)",
    "property": "Percent Effect",
    "measurement": 32.43
  },
  {
    "compound": "O=C(C1CNCCO1)N1CCC(c2cc(N3CCCC3)ncn2)CC1 (configuration not stated)",
    "property": "Percent Effect",
    "measurement": -9.261
  },
  {
    "compound": "c1ccn2c(C3CCCN(c4ncnc5c4CCNC5)C3)nnc2c1 (configuration not stated)",
    "property": "Percent Effect",
    "measurement": -1.091
  },
  {
    "compound": "O=C(C1CNCCO1)N1CCCC(c2ccccc2)(c2ccccc2)C1 (configuration not stated)",
    "property": "Percent Effect",
    "measurement": 80.57
  },
  {
    "compound": "O=C(NCCc1cccnc1)C1CCCN(Cc2ccco2)C1 (configuration not stated)",
    "property": "Percent Effect",
    "measurement": -19.49
  },
  {
    "compound": "Cc1nn(C)c(C)c1CN1CCCC(c2ccc(C(=O)O)cc2)C1 (configuration not stated)",
    "property": "Percent Effect",
    "measurement": 20.41
  },
  {
    "compound": "CCOCC1CN(Cc2ccoc2)Cc2cn(CC3CC3)nc21 (configuration not stated)",
    "property": "Percent Effect",
    "measurement": 26.22
  },
  {
    "compound": "CCCc1nc2c(c(C)c(C)n2Cc2cccnc2)c(N)c1CC",
    "property": "Percent Effect",
    "measurement": 64.41
  },
  {
    "compound": "Cc1c(C)n(Cc2ccncc2)c2nc3c(c(N)c12)CCCC3",
    "property": "Percent Effect",
    "measurement": 9.739
  },
  {
    "compound": "c1ccc2c(c1)CN(c1ncnc3c1CCNC3)CCO2",
    "property": "Percent Effect",
    "measurement": 24.34
  },
  {
    "compound": "CCN(C)C[C@H]1CC[C@@H](Cc2ccc3c(cnn3C)c2)O1",
    "property": "Percent Effect",
    "measurement": -0.9976
  },
  {
    "compound": "CCCc1nc2c(c(C)c(C)n2Cc2ccncc2)c(N)c1CC",
    "property": "Percent Effect",
    "measurement": 13.89
  },
  {
    "compound": "CC(C)(C)c1ncc(CNc2ccccc2SCCC(N)=O)s1",
    "property": "Percent Effect",
    "measurement": -11.51
  },
  {
    "compound": "Cc1ccc(N2CC[C@@H]3O[C@@H](COCc4cccnc4)CC[C@@H]32)nn1.O=C(O)C(F)(F)F.O=C(O)C(F)(F)F",
    "property": "Percent Effect",
    "measurement": -9.892
  },
  {
    "compound": "CCc1nnc(SCC(=O)Nc2cc(C(C)(C)C)nn2C)[nH]1",
    "property": "Percent Effect",
    "measurement": 21.82
  },
  {
    "compound": "Cc1ccc(CNc2ccccc2SCCC(N)=O)s1",
    "property": "Percent Effect",
    "measurement": 58.74
  },
  {
    "compound": "Cc1nnc([C@]23COC[C@H]2CN(Cc2cnn(C)c2)C3)o1.O=C(O)C(F)(F)F",
    "property": "Percent Effect",
    "measurement": 10.4
  },
  {
    "compound": "CN(Cc1ccoc1)C(=O)C1(Oc2ccc(Cl)cc2)CCNCC1",
    "property": "Percent Effect",
    "measurement": -16.66
  }
]
